The measurements presented in this section are drawn from patent US8772283B2.

- TARGET OR TEST SYSTEM: human AKT1 (Homo sapiens (Human), UniProt P31749)
- Sequence (P31749 whole entry): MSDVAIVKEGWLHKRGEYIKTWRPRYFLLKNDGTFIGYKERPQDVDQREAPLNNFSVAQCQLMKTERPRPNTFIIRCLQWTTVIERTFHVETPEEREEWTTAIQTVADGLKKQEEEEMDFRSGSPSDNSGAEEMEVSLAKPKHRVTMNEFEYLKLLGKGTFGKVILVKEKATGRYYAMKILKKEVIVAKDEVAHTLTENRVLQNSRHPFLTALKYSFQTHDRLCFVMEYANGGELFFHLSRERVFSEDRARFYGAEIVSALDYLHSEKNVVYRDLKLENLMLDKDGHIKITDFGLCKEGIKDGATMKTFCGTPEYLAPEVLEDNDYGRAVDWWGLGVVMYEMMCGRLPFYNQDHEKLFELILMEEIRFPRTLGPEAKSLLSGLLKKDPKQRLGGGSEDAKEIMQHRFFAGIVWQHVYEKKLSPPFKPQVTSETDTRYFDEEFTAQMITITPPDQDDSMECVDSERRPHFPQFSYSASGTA

MOLECULE	IC50 [nM]
NC1(c2ccc(-c3nc4n(c3-c3ccccc3)COc3nccnc3-4)cc2)CC(O)(C2CC2)C1 (stereo not drawn)	5.4
CC1(O)CC(N)(c2ccc(-c3nc4n(c3-c3ccccc3)COc3ccc(-c5cn[nH]c5)cc3-4)cc2)C1 (stereo not drawn)	1.3
NC1(c2ccc(-c3nc4n(c3-c3ccccc3)COc3c(F)cccc3-4)cc2)CC(O)(C2CC2)C1 (stereo not drawn)	2.3
C[C@]1(O)C[C@@](N)(c2ccc(-c3nc4n(c3-c3ccccc3)COc3ccc(-c5ccn[nH]5)cc3-4)cc2)C1	0.8
CC1(O)CC(N)(c2ccc(-c3nc4n(c3-c3ccccc3)COc3cc(C#N)ccc3-4)cc2)C1 (stereo not drawn)	6.2
CC1(O)CC(N)(c2ccc(-c3nc4n(c3-c3ccccc3)COc3ccc(C(=O)NCCO)cc3-4)cc2)C1 (stereo not drawn)	2.4

====

- TARGET OR TEST SYSTEM: human AKT2 (Homo sapiens (Human))
- Sequence (P31751 whole entry): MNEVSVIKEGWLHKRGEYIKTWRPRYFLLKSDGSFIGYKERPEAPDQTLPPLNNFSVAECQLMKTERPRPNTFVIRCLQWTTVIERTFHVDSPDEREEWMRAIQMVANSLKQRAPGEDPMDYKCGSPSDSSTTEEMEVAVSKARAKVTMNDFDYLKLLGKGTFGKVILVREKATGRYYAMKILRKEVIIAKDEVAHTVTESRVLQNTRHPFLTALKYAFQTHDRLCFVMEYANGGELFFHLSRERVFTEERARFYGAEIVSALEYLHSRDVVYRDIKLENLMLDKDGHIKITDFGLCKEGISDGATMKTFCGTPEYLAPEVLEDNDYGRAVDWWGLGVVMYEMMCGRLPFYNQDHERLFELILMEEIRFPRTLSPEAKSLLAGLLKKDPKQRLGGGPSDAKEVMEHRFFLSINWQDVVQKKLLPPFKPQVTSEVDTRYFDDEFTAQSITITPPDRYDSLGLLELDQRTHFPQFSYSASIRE
Counter-ions that a name gives are not always drawn.
Note to self: use fulfilled only for IC50 readings below 1 nM; a reading exactly at 1 nM still gets not fulfilled.

COMPOUND	ASSIGNED CLASS
NC1(c2ccc(-c3nc4n(c3-c3ccccc3)COc3ncccc3-4)cc2)CCC1 [Example 40]	not fulfilled
COc1ccc2c(c1)OCn1c-2nc(-c2ccc([C@]3(N)C[C@@](O)(C4CC4)C3)cc2)c1-c1ccccc1 [Example 18]	fulfilled
CC[C@]1(O)C[C@@](N)(c2ccc(-c3nc4n(c3-c3ccccc3)COc3ccncc3-4)cc2)C1 [Example 34]	not fulfilled
CC1(O)CC(N)(c2ccc(-c3nc4n(c3-c3ccsc3)COc3cccc(F)c3-4)cc2)C1 (stereo not drawn) [Example 6]	fulfilled
CN(C)C(=O)c1ccc2c(c1)-c1nc(-c3ccc(C4(N)CC(C)(O)C4)cc3)c(-c3ccccc3)n1CO2 (stereo not drawn) [Example 54]	not fulfilled
CC1(O)CC(N)(c2ccc(-c3nc4n(c3-c3ccccc3)COc3ccncc3-4)cc2)C1 (stereo not drawn) [Example 32]	not fulfilled
COc1ccc2c(n1)-c1nc(-c3ccc(C4(N)CC(C)(O)C4)cc3)c(-c3ccccc3)n1CO2 (stereo not drawn) [Example 51]	not fulfilled
CNC(=O)c1ccc2c(c1)OCn1c-2nc(-c2ccc([C@]3(N)C[C@](C)(O)C3)cc2)c1-c1ccccc1 [Example 56]	fulfilled
CCONC(=O)c1ccc2c(c1)OCn1c-2nc(-c2ccc([C@]3(N)C[C@](C)(O)C3)cc2)c1-c1ccccc1 [Example 59]	fulfilled
CC1(O)CC(N)(c2ccc(-c3nc4n(c3-c3ccccc3)COc3ncccc3-4)cc2)C1 (stereo not drawn) [Example 39]	fulfilled
NC1(c2ccc(-c3nc4n(c3-c3ccccc3)COc3cccc(F)c3-4)cc2)CCC1 [Example 3]	not fulfilled
CC[C@]1(O)C[C@@](N)(c2ccc(-c3nc4n(c3-c3ccccc3)COc3cccnc3-4)cc2)C1 [Example 30]	not fulfilled
CC1(O)CC(N)(c2ccc(-c3nc4n(c3-c3ccccc3)COc3cc(C(=O)O)ccc3-4)cc2)C1 (stereo not drawn) [Example 64, hydrochloride]	fulfilled
Cc1cccc2c1OCn1c-2nc(-c2ccc([C@]3(N)C[C@@](O)(C4CC4)C3)cc2)c1-c1ccccc1 [Example 26]	not fulfilled
N[C@]1(c2ccc(-c3nc4n(c3-c3ccccc3)COc3ncccc3-4)cc2)C[C@](O)(C2CC2)C1 [Example 38]	fulfilled
CCC1(O)CC(N)(c2ccc(-c3nc4n(c3-c3ccccc3)COc3nccnc3-4)cc2)C1 (stereo not drawn) [Example 43]	not fulfilled
C[C@]1(O)C[C@@](N)(c2ccc(-c3nc4n(c3-c3ccccc3)COc3ccc(C#N)cc3-4)cc2)C1 [Example 46]	fulfilled
NC1(c2ccc(-c3nc4n(c3-c3ccccc3)COc3nccnc3-4)cc2)CC(O)(C2CC2)C1 (stereo not drawn) [Example 41]	not fulfilled
CC1(O)CC(N)(c2ccc(-c3nc4n(c3-c3ccccc3)COc3ccc(C(N)=O)cc3-4)cc2)C1 (stereo not drawn) [Example 53]	fulfilled
COc1cc(OC)c2c(c1)OCn1c-2nc(-c2ccc(C3(N)CC(O)(C4CC4)C3)cc2)c1-c1ccccc1 (stereo not drawn) [Example 25]	fulfilled
C[C@]1(O)C[C@@](N)(c2ccc(-c3nc4n(c3-c3ccccc3)COc3ccc(CO)cc3-4)cc2)C1 [Example 44]	fulfilled
CC1(O)CC(N)(c2ccc(-c3nc4n(c3-c3ccncc3)COc3cccc(F)c3-4)cc2)C1 (stereo not drawn) [Example 7]	not fulfilled
C[C@]1(O)C[C@@](N)(c2ccc(-c3nc4n(c3-c3ccccc3)COc3cnccc3-4)cc2)C1 [Example 36]	fulfilled
NC1(c2ccc(-c3nc4n(c3-c3ccncc3)COc3ccccc3-4)cc2)CCC1 [Example 15]	not fulfilled
C[C@]1(O)C[C@@](N)(c2ccc(-c3nc4n(c3-c3ccccc3)COc3cc(F)ccc3-4)cc2)C1 [Example 9]	not fulfilled
COc1ccc2c(c1)OCn1c-2nc(-c2ccc(C3(N)CC(C)(O)C3)cc2)c1-c1ccccc1 (stereo not drawn) [Example 21]	fulfilled
NC1(c2ccc(-c3nc4n(c3-c3ccccc3)COc3c(F)cccc3-4)cc2)CC(O)(C2CC2)C1 (stereo not drawn) [Example 10]	not fulfilled
CCOc1cccc2c1-c1nc(-c3ccc(C4(N)CC(O)(C5CC5)C4)cc3)c(-c3ccccc3)n1CO2 (stereo not drawn) [Example 23]	not fulfilled
NC1(c2ccc(-c3nc4n(c3-c3ccccc3)COc3cnccc3-4)cc2)CCC1 [Example 37]	not fulfilled
